Every entry's value here was drawn from PubChem BioAssay AID1508637.

- experimental_details: qHTS for characterization and localization of zebrafish homologs of the human ABCB1 multidrug transporter: empty vector transfected cells
- conditions_used: empty vector transfected control cells, CellTiter-Glo luminescence viability, 72 h; series mostly up to 46.1 µM
Results filed as inconclusive are left out. Calls of active or inactive are those of the source. The call rests on the fitted dose curve; in most records, active means well fitted inhibition curve with a large enough effect; inconclusive means small, poorly fitted or top-dose-only effect; inactive means flat fitted curve, though single readings scatter.
Respond only with the outcome that fits, drawn from t for active, f for inactive

[[record]]
compound = "COc1cc(C(=O)NC2CCN(C)CC2)ccc1Nc1ncc2c(n1)N(C1CCCC1)CC(F)(F)C(=O)N2C"
label_value = "t"

[[record]]
compound = "CN(c1ncccc1CNc1nc(Nc2ccc3c(c2)CC(=O)N3)ncc1C(F)(F)F)S(C)(=O)=O"
label_value = "t"

[[record]]
compound = "CC(=O)O[C@@H]1C[C@H](O)[C@@]23CO[C@@H](O)C1(C)[C@@H]2C[C@@H](O)[C@]1(C)[C@@H]3C(=O)[C@H](OC(C)=O)[C@@]2(C)[C@H](c3ccoc3)C[C@H]3O[C@]321"
label_value = "t"


Next up:
Record lookup: outcome of this test for "Cc1ccc(-c2ncn(-c3ccc(Nc4nccc(-c5cccc(N6CCOCC6)c5)n4)cc3)n2)cn1" ?
t

---

- experimental_details: qHTS for characterization and localization of zebrafish homologs of the human ABCB1 multidrug transporter: empty vector transfected cells
- conditions_used: empty vector transfected control cells, CellTiter-Glo luminescence viability, 72 h; series mostly up to 46.1 µM
Results filed as inconclusive are left out. The source made the active and inactive calls. Calls follow the shape of the dose curve; as a rule, active = well fitted inhibition curve with a large enough effect; inconclusive = small, poorly fitted or top-dose-only effect; inactive = flat fitted curve, though single readings scatter.
List of Potency values.

[[record]]
compound = "COc1ccc(CC2C(=O)NC(C)C(=O)N(C)C3Cc4ccc(cc4)Oc4cc(ccc4OC4OC(CO)C(O)C(O)C4O)CC(C(=O)NC(C)C(=O)NC(C)C(=O)N2C)N(C)C3=O)cc1 (stereo unspecified)"
measured_value = "88.8 nM (active)"

[[record]]
compound = "COc1cc2c(NC3CCN(C(C)C)CC3)nc(N3CCCN(C)CC3)nc2cc1OCCCN1CCCC1"
measured_value = "16600 nM (active)"

[[record]]
compound = "CN(C)CCN(C)C(=O)c1ccc(NC(=O)Nc2ccc(-c3nc(N4CCOCC4)c4ccn(CC(F)(F)F)c4n3)cc2)cc1"
measured_value = "264 nM (active)"

[[record]]
compound = "COCCn1c2c([n+](Cc3cnccn3)c1C)C(=O)c1ccccc1C2=O"
measured_value = "16.6 nM (active)"

[[record]]
compound = "CC(NCc1ccc2c(c1)nc(NC(=O)c1ccc(-c3cn[nH]c3)s1)n2CC(C)(C)O)C(C)(C)C (stereo unspecified)"
measured_value = "332 nM (active)"

[[record]]
compound = "CC[n+]1c(-c2ccccc2)c2cc(N)ccc2c2ccc(N)cc21"
measured_value = "332 nM (active)"


Return reported Potency; argument: "CC(C)(C)c1cnc(CSc2cnc(NC(=O)C3CCNCC3)s2)o1"
1080 nM (active)

Would you mind doing "CN(C)c1ccc(C(=C2C=CC(=[N+](C)C)C=C2)c2ccc(N(C)C)cc2)cc1" as well?
590 nM (active)

Would you mind doing "N=C(N)c1ccc(OCCCCCOc2ccc(C(=N)N)cc2)cc1" as well?
2640 nM (active)

Would you mind doing "CCn1c(-c2nonc2N)nc2c(C#CC(C)(C)O)ncc(OC[C@H]3CCCNC3)c21" as well?
1180 nM (active)

Would you mind doing CC(=O)C1(O)Cc2c(O)c3c(c(O)c2C(OC2CC(N)C(O)C(C)O2)C1)C(=O)c1c(O)cccc1C3=O (stereo unspecified) as well?
41.8 nM (active)
